Target: wild-type CB2 (Homo sapiens)
Sequence (P34972 whole entry): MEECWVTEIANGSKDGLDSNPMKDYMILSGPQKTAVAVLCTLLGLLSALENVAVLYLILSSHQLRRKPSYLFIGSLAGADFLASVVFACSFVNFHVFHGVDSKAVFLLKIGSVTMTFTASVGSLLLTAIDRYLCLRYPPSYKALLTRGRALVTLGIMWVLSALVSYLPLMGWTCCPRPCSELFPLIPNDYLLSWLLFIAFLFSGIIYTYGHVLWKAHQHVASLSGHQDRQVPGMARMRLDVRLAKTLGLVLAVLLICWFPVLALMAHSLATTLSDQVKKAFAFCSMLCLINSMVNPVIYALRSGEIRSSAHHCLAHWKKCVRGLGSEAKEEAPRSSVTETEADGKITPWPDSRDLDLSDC
Assay: Forskolin-stimulated cAMP accumulation
measured-attribute: IC50
Answer format: number, then unit.

Asked: What value of measured IC50 is listed for Cc1c(C(=O)NC23CC4CC(CC(C4)C2)C3)nn(CCCCCO)c1-c1ccccc1 ?
Given back: 35.9 nM

====

Target: CB1 (Homo sapiens)
Sequence (P21554 whole entry): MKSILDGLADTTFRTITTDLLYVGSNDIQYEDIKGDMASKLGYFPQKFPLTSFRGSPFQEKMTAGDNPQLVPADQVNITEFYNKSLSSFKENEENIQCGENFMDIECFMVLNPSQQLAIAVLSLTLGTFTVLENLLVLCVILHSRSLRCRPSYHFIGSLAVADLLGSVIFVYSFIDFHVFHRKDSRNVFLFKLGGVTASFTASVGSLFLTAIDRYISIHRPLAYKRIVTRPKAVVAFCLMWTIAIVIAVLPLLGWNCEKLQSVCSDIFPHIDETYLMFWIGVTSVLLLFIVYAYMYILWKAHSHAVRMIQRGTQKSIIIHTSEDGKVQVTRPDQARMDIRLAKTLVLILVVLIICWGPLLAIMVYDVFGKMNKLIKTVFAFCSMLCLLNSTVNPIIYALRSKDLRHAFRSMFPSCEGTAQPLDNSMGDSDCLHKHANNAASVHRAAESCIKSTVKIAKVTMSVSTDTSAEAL
Experiment: β-arrestin2 recruitment assay at CB1
Listed here: items and their measured EC50.
Kindly provide the numeric value in nM only, without the unit symbol.

# example entries with known answers
[[record]]
smiles_str = "Cc1c(C(=O)NC23CC4CC(CC(C4)C2)C3)nn(CCCCCO)c1-c1ccccc1"
test_system = "CB1 (Homo sapiens)"
measured_attribute = "EC50"
reported_result = 51.5

[[record]]
smiles_str = "CC(=O)OCCn1c(=NC(=O)C2C(C)(C)C2(C)C)sc2cc(C)ccc21"
test_system = "CB1 (Homo sapiens)"
measured_attribute = "EC50"
reported_result = 114


From here, focus on the item given below.
Asked: What value of measured EC50 is listed for CC(=O)OCCn1c(C)c(C)sc1=NC(=O)C1C(C)(C)C1(C)C ?
Given back: 310

====

Molecular target: CB2 G304E (Homo sapiens, UniProt P34972, G304E)
Sequence (P34972 whole entry G304E): as the sequence (P34972 whole entry) above, with G304E counted along it
Experiment: Receptor activity at CB2 stabilizing point mutant G304E
measured-attribute: pIC50
pIC50 is a log-scale quantity: -log10 of the concentration expressed in molar.

Asked: What value of measured pIC50 is listed for Cc1c(C(=O)NC23CC4CC(CC(C4)C2)C3)nn(CCCCCO)c1-c1ccccc1 ?
Given back: 7.49

====

Biological target: CB2 G78L (Homo sapiens, UniProt P34972, G78L)
Sequence (P34972 whole entry G78L): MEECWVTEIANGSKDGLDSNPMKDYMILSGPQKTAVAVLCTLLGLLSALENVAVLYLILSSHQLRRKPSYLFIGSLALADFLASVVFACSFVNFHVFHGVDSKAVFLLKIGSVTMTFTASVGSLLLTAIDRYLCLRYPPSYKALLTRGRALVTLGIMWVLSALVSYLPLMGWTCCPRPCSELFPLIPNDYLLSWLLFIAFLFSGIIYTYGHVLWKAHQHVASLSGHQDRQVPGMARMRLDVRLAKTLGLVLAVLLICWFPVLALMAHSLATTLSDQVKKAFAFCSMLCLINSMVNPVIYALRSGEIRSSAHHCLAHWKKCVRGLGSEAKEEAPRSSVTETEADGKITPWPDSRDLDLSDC
Test: Receptor activity at CB2 stabilizing point mutant G78L
measured-attribute: pIC50
pIC50 is a log-scale quantity: -log10 of the concentration expressed in molar.

Asked: What value of measured pIC50 is listed for Cc1c(C(=O)NC23CC4CC(CC(C4)C2)C3)nn(CCCCCO)c1-c1ccccc1 [AM10257] ?
Given back: 7.22

====

Biological target: CB2 R242E (Homo sapiens, UniProt P34972, R242E)
Sequence (P34972 whole entry R242E): as the sequence (P34972 whole entry) above, with R242E counted along it
Experiment: Receptor activity at CB2 stabilizing point mutant R242E
measured-attribute: IC50 (nM)
Kindly provide the numeric value in nM only, without the unit symbol.

Asked: What value of measured IC50 is listed for Cc1c(C(=O)NC23CC4CC(CC(C4)C2)C3)nn(CCCCCO)c1-c1ccccc1 ?
Given back: 46.7

Source listed as paper PMC6713262.
